Reported growth values for a set of compounds
# Test system: HL-60(TB) leukemia
# ASSAY COMMENT: NCI-60 one-dose screen, 48 h (100 = growth as untreated, 0 = no growth, -100 = all killed)
# EXPERIMENTAL SETUP: 10 µM unless noted
The panel holds about 83,000 compounds, 20% with a hit somewhere; the sample as a whole holds those more often.
Report as a plain number; the unit % is understood.

Guide cases for growth, answers given:
NC(Cc1ccc(O)cc1)C(=O)N/N=C/c1ccccc1O (stereo unspecified): 93.7
C[C@@H]1CCC[C@H]1CC(N)C(=O)O (stereo partly specified): 112
CC/C=C\C[C@H]1C/C=C2/C(=O)C=C[C@@H]2C/C=C\CCCC(=O)O1: -27.2
Cc1nn(-c2nc3ccccc3[nH]2)c2c1C(c1ccc(OCC(N)=O)cc1)CC(=O)N2 (stereo unspecified): 113
C=CCSc1nnc(NC(=O)CCl)s1: 91.5

Consider now this further compound.
Which measured growth value corresponds to COC(=O)[C@H](CC(C)C)NC(=O)NC(=O)NC(=O)CI ?
50.7

====

Reported growth values for a set of compounds
# Tested on: HL-60(TB) leukemia
# ASSAY COMMENT: NCI-60 one-dose screen, 48 h (100 = growth as untreated, 0 = no growth, -100 = all killed)
# EXPERIMENTAL SETUP: 10 µM unless noted
The panel holds about 83,000 compounds, 20% with a hit somewhere; the sample as a whole holds those more often.
Report as a plain number; the unit % is understood.

Guide cases for growth, answers given:
O=C(Nc1ccc(N2CCNCC2)cc1)c1[nH]ncc1Nc1cc(C2CC2)ncn1: 67.9
Cc1cc(-c2ccccc2)c(C)n1Cc1ccc(Cl)cc1: -27.2
COc1ccc(/C=N\NC(=O)c2cc(-c3ccc(Br)cc3)n(-c3ccc(S(N)(=O)=O)cc3)n2)cc1: 33.5
N#Cc1c(Nc2ccccc2)nn2cc(-c3nc4ccccc4s3)c(N)nc12: 100

Which measured growth value corresponds to Nc1nc2c(nnn2C2CC(O)C(CO)O2)c(=O)[nH]1 (configuration not stated) ?
28.4

Which measured growth value corresponds to CCOC(=O)C(=O)C(C(=O)OCC)c1ccccc1 (configuration not stated) ?
95.6

Which measured growth value corresponds to CN1CCN(Cc2ccc(NC(=O)c3nc4ccc5[nH]ncc5c4c4c3CCC4)cc2C(F)(F)F)CC1 ?
-59.1

====

# System: HL-60(TB) leukemia
# ASSAY COMMENT: NCI-60 one-dose screen, 48 h
# EXPERIMENTAL SETUP: 10 µM unless noted
# Description: Growth inhibition of the HL-60(TB) human tumor cell line is measured as a screen for anti-cancer activity. Cells are grown in 96 well plates and exposed to the test compound for 48 hours. Compounds are tested at a single concentration, which is 10^-5 M for most compounds. The reported endpoint is percent growth (GI% or GIPRCNT), where numbers from 0 - 100% represent growth inhibition, and numbers from -100% - 0 represent cell death. For example, a value of 40 represents 60% growth inhibition. […]
This is part of a sample that, as a whole, favours compounds with a hit. Of some 83,000 tested, about 20% had one in any assay. Calls of active or inactive are those of the source. How the source made its calls: active means growth percent below 10; inactive means the rest.
Answer with one of the outcomes given here: 1.0 for active, 0.0 for inactive

O=C(NCc1cccc(C(F)(F)F)c1)[C@H](CCC(=O)N1CCN(C2CCCCC2)CC1)N1C(=O)[C@@H](N2C(=O)OC[C@@H]2c2ccccc2)[C@H]1/C(Cl)=C/c1ccccc1: 1.0
COc1ccccc1C1OC2=Nc3cc(C)c(C)cc3NC2C1=O (stereo unspecified): 0.0
COc1cc(CNC(=O)CCCC/C=C/C(C)C)ccc1OCc1nnc(Nc2ccc([N+](=O)[O-])cc2)o1: 0.0

Which outcome was entered for the molecule O=[N+]([O-])c1ccc(Nc2nc(NCCN3CCOCC3)ncc2[N+](=O)[O-])cc1 in this test?
0.0

====

# Tested on: HL-60(TB) leukemia
# ASSAY COMMENT: NCI-60 one-dose screen, 48 h (100 = growth as untreated, 0 = no growth, -100 = all killed)
# EXPERIMENTAL SETUP: 10 µM unless noted
Compounds without any hit were thinned out: in the full panel of roughly 83,000, 20% have a hit.
READOUT LABEL: growth (%)
Report as a plain number; the unit % is understood.

O=C(NCCO)c1cccnc1: 97.1
C=C1C(=O)O[C@H]2[C@H]1CC/C(COC(=O)NCc1cc[nH]c1)=C\CC[C@@]1(C)O[C@@H]21: -6.94
NC1=NC(=O)C(c2ccccc2)(c2ccccc2)S1: 97.9
COc1cc(C2CC(c3ccccc3)=NN2C=O)ccc1Oc1ccnc2cc(Cl)ccc12 (stereo unspecified): 33.5
O=C(O)COCC(=O)O: 102

Which measured growth value corresponds to COc1ccc(-c2nc3sc4c(c3c(=O)[nH]2)CCCC4)c2ccccc12 ?
-24.7

Which measured growth value corresponds to CCOc1ccc(Nc2nc(-c3c(C)nc4ncccn34)cs2)cc1 ?
-34.1

Which measured growth value corresponds to COc1cc(CNC(=O)/C=C/C=C/c2ccc3c(c2)OCO3)ccc1OCc1cn(-c2ccc(Cl)c(Cl)c2)nn1 ?
85.4

Which measured growth value corresponds to Cn1cc(-c2ccc3nc(-c4ccc(CC(=O)ONc5cc(C(C)(C)C)on5)cc4)cnc3c2)cn1 ?
29

Which measured growth value corresponds to CCCC(=O)Oc1ccc(/C(=C(\C)c2ccc(Cl)cc2)c2ccc(OCCN(CC)CC)cc2)cc1 ?
-49.1

Which measured growth value corresponds to N#CC1=C(N)Oc2ccc3ccccc3c2C1c1ccccc1 (stereo unspecified) ?
2.02

====

# Test system: HL-60(TB) leukemia
# ASSAY COMMENT: NCI-60 one-dose screen, 48 h
# EXPERIMENTAL SETUP: 10 µM unless noted
This is part of a sample that, as a whole, favours compounds with a hit. Of some 83,000 tested, about 20% had one in any assay. Calls of active or inactive are those of the source. How the source made its calls: active means growth percent below 10; inactive means the rest.
Answer with one of the outcomes given here: T (active), F (inactive)

Would you please look over these solved cases?
O=C1Nc2ccccc2/C1=C\c1nc(-c2ccccc2F)n2ccccc12: F
OC(c1ccccc1)C(NC(Cc1ccccc1)c1ccccc1)c1ccccc1 (stereo not given): F
Cc1cc2c([nH]1)CSc1cc(S(=O)(=O)c3ccccc3)c(=O)[nH]c1-2: F

Which outcome was entered for the compound COc1ccc(NS(=O)(=O)N2CCCCC2)cc1 in this test?
F

Which outcome was entered for the compound CC(C)C(C)(C)C(=O)C(C)(C)C(C)(C)C in this test?
F

Which outcome was entered for the compound FC(F)(F)c1ccc(-c2cn3nc(-c4c[nH]c5ccc(Br)cc45)sc3n2)cc1 in this test?
F

Which outcome was entered for the compound Oc1c(Br)cc(Br)c2ccc(Cn3cc(-c4ccccc4C(F)(F)F)nn3)nc12 in this test?
T

Which outcome was entered for the compound COc1ccc(C2C3=C(COC3=O)N(CCO)c3cc4c(cc32)OCCO4)cc1 (stereo not given) in this test?
F

Which outcome was entered for the compound Cn1cc(-c2csc(-c3ccc(Cl)cc3)n2)c2cccnc21 in this test?
T

Which outcome was entered for the compound CCCCN(CCCC)CCCNc1c2c(nc3ccc(Cl)cc13)CCCC2 in this test?
F

Which outcome was entered for the compound COC(=O)[C@]12CC[C@@H](C)[C@H](C)[C@@H]1C1=CC[C@@H]3[C@@]4(C)C/C(=N\O)[C@H](O)[C@@]5(C)COC(=C45)C[C@@]3(C)[C@]1(C)CC2 in this test?
T

Which outcome was entered for the compound COC(=O)[C@]12CC[C@@H](C(/C=C/c3cccnc3)=N/O)[C@@H]1[C@H]1CC[C@@H]3[C@@]4(C)CC(=C/c5cccnc5)/C(=N/O)C(C)(C)[C@@H]4CC[C@@]3(C)[C@]1(C)CC2 in this test?
T

Which outcome was entered for the compound COc1ccc(/C(=N/O)c2cc(F)c(F)c(OC)c2F)cc1O in this test?
T

Which outcome was entered for the compound CCCCn1cnc2c(Sc3c([N+](=O)[O-])ncn3C)nc(N)nc21 in this test?
F

Which outcome was entered for the compound CCOC(=O)c1c(C)c2c(n1C)CSc1cc(C(=O)c3ccccc3)c(=O)[nH]c1-2 in this test?
F

Which outcome was entered for the compound Cn1cc(C(=O)c2nc(-c3c[nH]c4ccccc34)no2)c2cc(F)ccc21 in this test?
T

Which outcome was entered for the compound COc1ccc(C(C)=O)cc1S(=O)(=O)Nc1c(N)nc(SC)[nH]c1=O in this test?
F

====

# System: HL-60(TB) leukemia
# ASSAY COMMENT: NCI-60 one-dose screen, 48 h
# EXPERIMENTAL SETUP: 10 µM unless noted
About 83,000 compounds went through this panel and 20% of them were active in at least one assay; those are over-represented in the sample as a whole. Activity calls are given as the source filed them. Rule for the calls: active = growth percent below 10; inactive = the rest.
Answer with one of the outcomes given here: active, inactive

Would you please look over these solved cases?
O=C(Nc1cccc(-c2cccc(F)c2)c1)C1CCN(Cc2cccc3cccnc23)CC1: inactive
O=S(=O)(O)c1ccc(Cl)c(Cl)c1: inactive
CN[C@]12CC3(C=CC(=O)C=C3)O[C@@]1(Cc1ccc(OC)cc1)N(C)C(=O)N2: active
C=C(C)[C@@H]1CC[C@]2(COCCC#N)CC[C@]3(C)[C@H](CC[C@@H]4[C@@]5(C)Cc6c([nH]c7ccccc67)C(C)(C)[C@@H]5CC[C@]43C)[C@@H]12: inactive

Please look at the following compound next.
Which outcome was entered for the compound O=C1/C(=C\c2ccc3nccnc3c2)SC(=S)N1CCc1ccc(O)cc1 in this test?
inactive
